Reference source: ChEMBL document CHEMBL1201862

test system: HOP-62; experiment: NCI tumour cell line growth inhibition, 48 h
Active and inactive are the calls of the source. Rule as the data show it: active = GI50 up to about 1.1 µM and inactive = higher.
Hi! Could you answer with just one of these? YES (active), NO (inactive)

Compound	Assigned category
CC[C@H]1C=CCC[C@@]2(C[C@@H]3CC[C@@H]4[C@H](C(=O)OCCCCCCCCCCCCCCCC(=O)N(CCCN)CCCCN)[C@]5(CCC[C@@H](C)O5)NC(=[N+]34)N2)O1	YES
COC(=O)C1=C(C)NC(C)=C(C(=O)OC)C1c1cccc(NO)c1	NO
CC1=NC(=O)C(C)(c2ccccc2)N1CCc1ccccc1 (centres undefined)	NO
N#C/C(=C\c1ccc(O)c(O)c1)C(=O)NC1CCC(CC2CCC(NC(=O)/C(C#N)=C/c3ccc(O)c(O)c3)CC2)CC1 (centres undefined)	NO

// query Hello, I am checking results. What call was entered for `COC[n+]1cc2cc(OC)c(OC)cc2c2ccc3cc(OC)c(OC)cc3c21` ?
// result NO

// query Hello, I am checking results. What call was entered for `CCOC(=O)c1ccc(C(=O)n2ccnc2)[nH]1` ?
// result NO

// query Hello, I am checking results. What call was entered for `CNc1nc(C(N)=O)c(N)s1` ?
// result NO

// query Hello, I am checking results. What call was entered for `Fc1ccc(NC(=S)SCc2ccc3c(c2)OCO3)cc1F` ?
// result NO

// query Hello, I am checking results. What call was entered for `COc1ccc(OC)c2c(Nc3ccc(S(=O)(=O)O)c4cc(S(=O)(=O)O)cc(S(=O)(=O)O)c34)cc(C)nc12` ?
// result NO
